Experiment: Acute toxicity (LD50) in male albino mice
Assay type: in vivo
Settings: mouse, in vivo, Tainter and Miller, ± standard deviation

MOLECULE | LD50, mg/kg
CN(CC(=O)O)C(=N)NP(=O)(O)O [CP, creatine-phosphate] | 3500
